# Procedure text: M. tuberculosis growth inhibition, HTS (AID 449762);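 note: bacterial growth assessed after seven days of incubation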
# Experimental setup: M. tuberculosis H37Rv growth inhibition, 7H9 media; at 25 µM; stronger effect = higher value
Hit rate of the full screen: of about 330,000 compounds, about 1,900 (0.58%) were called active. About 4% were inconclusive and are not listed. The list is a sample of the results. Potency and affinity values are given separately.
Property: inhibition

The value of inhibition measured for the molecule Nc1nonc1C(=O)NCCNCc1ccccc1OCc1ccccc1F turned out to be 2.36% (inactive)

The value of inhibition measured for the molecule Cc1cc(=O)[nH]c(N/N=C/c2c(O)n(-c3ccccc3)c(=O)c3ccccc23)n1 turned out to be 31.9% (inactive)

The value of inhibition measured for the molecule COC(=O)CSc1[nH]c2ccccc2c1[N+](=O)[O-] turned out to be -2.39% (inactive)

The value of inhibition measured for the molecule Cc1cc(NC(=O)C(C)C)ncc1NC(=O)c1ccco1 turned out to be 4% (inactive)

The value of inhibition measured for the molecule C=CC[C@H](CC(=O)NCCO)C(=O)NC[C@@H](OC(=O)[C@@H](CC=C)CC(=O)OC(C)(C)C)c1ccccc1 turned out to be -4.9% (inactive)

The value of inhibition measured for the molecule CC(C)NC(=O)CCCN1C(=O)c2ccccc2Sc2ncccc21 turned out to be 1.48% (inactive)

The value of inhibition measured for the molecule CC(=O)N1CCN(c2ccc([N+](=O)[O-])c(-n3nc(C)cc3C)c2)CC1 turned out to be 1.6% (inactive)

The value of inhibition measured for the molecule CC(C)(C)c1ccc(-c2noc(C(=O)NN)n2)cc1 turned out to be -2.97% (inactive)

The value of inhibition measured for the molecule O=C(COC(=O)c1cc(S(=O)(=O)N2CCOCC2)ccc1F)c1ccccc1 turned out to be 0.68% (inactive)

The value of inhibition measured for the molecule O=C(N/N=C/c1ccc(F)cc1)c1cccc(NC(=O)c2ccc(F)cc2)c1 turned out to be 9.14% (inactive)

The value of inhibition measured for the molecule CN(C)/N=C/C=C1\CC/C(=C\c2ccc(Br)cc2)C1=O turned out to be 3.13% (inactive)

The value of inhibition measured for the molecule CC(C)C(=O)Nc1c2c(nn1-c1ccc([N+](=O)[O-])cc1)CS(=O)(=O)C2 turned out to be 3.07% (inactive)

The value of inhibition measured for the molecule CCNCc1nc2cc(OC)c(OC)cc2c(=O)[nH]1 turned out to be 2.16% (inactive)

The value of inhibition measured for the molecule O=C(OCc1ccc(Cl)cc1)c1cnccn1 turned out to be 31.1% (inactive)

The value of inhibition measured for the molecule COc1ccc(CNC(=O)NCCc2c[nH]c3ccccc23)cc1 turned out to be 9.15% (inactive)

The value of inhibition measured for the molecule CCOc1ccc(C(C)=O)cc1COC(=O)c1cnc(Cl)c(Cl)c1 turned out to be -3.39% (inactive)

The value of inhibition measured for the molecule O=C1C=C(c2cccc3c2sc2ccccc23)C[C@@H](c2ccc(Cl)cc2)C1 turned out to be -0.695% (inactive)

The value of inhibition measured for the molecule CCOC(=O)CSc1[nH]c2cc(OC)ccc2c1[N+](=O)[O-] turned out to be 6.24% (inactive)

The value of inhibition measured for the molecule COc1ccc(CC(=O)Oc2ccccc2C)cc1 turned out to be 10.5% (inactive)

The value of inhibition measured for the molecule CC1CN(S(=O)(=O)c2cccc(C(=O)NCCCn3ccnc3)c2)CC(C)O1 (configuration not stated) turned out to be -14.2% (inactive)

The value of inhibition measured for the molecule Cc1nnc(N/N=C/c2c(O)n(-c3cccc(C(F)(F)F)c3)c(=O)c3ccccc23)[nH]c1=O turned out to be 3.05% (inactive)

The value of inhibition measured for the molecule CC(C)c1ccc(/C=C2\CC/C(=C\C=N\N(C)C)C2=O)cc1 turned out to be -3.15% (inactive)
